Attribution: paper PMC5540273

Give %Inh for every item shown.
tested on: MLK1; construct: gene MAP3K9; details: concentration: 1 μM, replicates: in singlicate; n = 1;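 further: KINOMEscan kinase panel screen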
Enter your answer as a number in %; do not include the unit.

Entry under test: CN(c1ccc(NC(=O)Nc2cc(C(F)(F)F)ccc2F)cc1)c1ccnc(Nc2ccc(S(N)(=O)=O)cc2)n1 [GW809893] . Its %Inh was 75

Entry under test: Cl.Cl.NCC(C(=O)Nc1cc(Br)c(-c2ccnc3[nH]ccc23)s1)c1ccccc1 (centres unmarked) [GSK1269851] . Its %Inh was 0

Entry under test: `Cn1cc(-c2[nH]c3cc(NC(=O)[C@H](N)C4CCCCC4)cc4c3c2C=NNC4=O)cn1` . Its %Inh was 88

Entry under test: Cl.NC(=O)c1cccc(Nc2nccc(Nc3ccc(Oc4c(Cl)cccc4Cl)c(Cl)c3)n2)c1 [GW659009] . Its %Inh was 0

Entry under test: Cc1occc1-c1ncc(OC[C@@H](N)Cc2c[nH]c3ccccc23)cc1-c1ccc2[nH]nc(C)c2c1.O=C(O)C(F)(F)F [GSK682037] . Its %Inh was 12

Entry under test: COc1cc(Nc2ncc3c(C)nc(-c4cc5ccccc5[nH]4)n3n2)cc(OC)c1OC [GW869516] . Its %Inh was 93.8

Entry under test: `COc1cccc(C(=O)Nc2cccc(Oc3ccc4nc(NC(=O)C5CC5)cn4n3)c2)c1` . Its %Inh was 8

Entry under test: `O=C(Nc1cccc(Oc2ccc3nc(NC(=O)C4CC4)cn3n2)c1)c1ccccc1C(F)(F)F` . Its %Inh was 6

* * *

tested on: TNNI3K; settings: concentration: 1 μM, replicates: in singlicate; n = 1
Give %Inh for every item shown.
Reply with the number and its unit after it.

Item `COc1cccc(C(=O)Nc2cccc(Oc3ccc4nc(NC(=O)C5CC5)cn4n3)c2)c1` ; assay system TNNI3K; %Inh reported as 87%

Item `O=C(Nc1cccc(-c2nn3ccccc3c2-c2ccnc(Nc3cccc(C(F)(F)F)c3)n2)c1)c1c(F)cccc1F` ; assay system TNNI3K; %Inh reported as 0%

Item COc1ccc(Nc2nccc(N3CCC(NC(=O)Nc4cccc(OC)c4)C3)n2)cc1 (stereo not shown) ; assay system TNNI3K; %Inh reported as 0%

Item `COc1cccc(C2=C(Nc3ccc(Cl)c(C(=O)O)c3)C(=O)NC2=O)c1` ; assay system TNNI3K; %Inh reported as 13%

Item `Cn1cc(-c2ccc3c(c2)CCN3C(=O)Cc2cccc(F)c2)c2c(N)ncnc21` ; assay system TNNI3K; %Inh reported as 0%

Item `CCS(=O)(=O)c1ccc(OC)c(Nc2nccc(-c3c(-c4cccc(NC(=O)c5c(F)cccc5F)c4)nn4ncccc34)n2)c1` ; assay system TNNI3K; %Inh reported as 15%

Item Cl.Cl.NCC(NCc1ccc(-c2ccnc3[nH]ccc23)s1)c1ccccc1 (stereo not shown) ; assay system TNNI3K; %Inh reported as 0%

Item `Clc1ccc(-c2nn3ncccc3c2-c2ccnc(Nc3ccc4c(c3)OCCO4)n2)cc1` ; assay system TNNI3K; %Inh reported as 0%

Item `COC(=O)Nc1nc2cc(Oc3ccc(NC(=O)Nc4cc(C(F)(F)F)ccc4F)cn3)ccc2[nH]1.Cl.Cl` ; assay system TNNI3K; %Inh reported as 92.9%

Item `CN1CCN(Cc2cccc(-c3ccc4c(Nc5ccc(Oc6ccccc6)cc5)ccnc4c3)c2)CC1` ; assay system TNNI3K; %Inh reported as 6%

Item `O=C(Nc1cccc(-c2nn3ccccc3c2-c2ccnc(Nc3cccc(F)c3)n2)c1)c1c(F)ccc(F)c1Cl` ; assay system TNNI3K; %Inh reported as 0%

Item `COCCOCCOc1cc2ncc3c4ccc(C#N)cc4[nH]c3c2cc1OC` ; assay system TNNI3K; %Inh reported as 9%

Item `Nc1ncc(-c2cccnc2)c2scc(-c3ccc4c(c3)CCN4C(=O)Cc3ccccc3)c12` ; assay system TNNI3K; %Inh reported as 20%

Item `Nc1ncc(-c2ccc3nccc(-c4ccncc4)c3c2)cc1S(=O)(=O)N1CCOCC1` ; assay system TNNI3K; %Inh reported as 0%

Item `COc1cc(Nc2ncc3c(C)nc(-c4cc5ccccc5[nH]4)n3n2)cc(OC)c1OC` ; assay system TNNI3K; %Inh reported as 33%

Item `c1ccc(Oc2ccc(Nc3ccnc4cc(-c5ccc(CNCCN6CCOCC6)o5)ccc34)cc2)nc1` ; assay system TNNI3K; %Inh reported as 0%
